For each entry below, report its koff value.
TARGET_OF_ASSAY: T1, human W3785-hProl.ECD.His (Human-TNFR2-His) protein (human, UniProt P20333 23-257)
T1 construct: extracellular domain; not shown: His tag
T1 sequence (looked up): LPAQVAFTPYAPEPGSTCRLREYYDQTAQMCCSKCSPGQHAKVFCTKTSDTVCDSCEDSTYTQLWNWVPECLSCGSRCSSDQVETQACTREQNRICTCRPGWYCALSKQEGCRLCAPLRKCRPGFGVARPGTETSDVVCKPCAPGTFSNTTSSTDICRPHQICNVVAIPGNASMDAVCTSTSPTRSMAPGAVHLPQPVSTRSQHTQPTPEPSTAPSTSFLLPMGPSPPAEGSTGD
TEST: BLI (Octet Red96e), antibody on AHC sensor, Human-TNFR2-His in solution, multiple concentrations
Answer format: numeric, s⁻¹ implied, no suffix.

Per the record, Antibody 23 (antibody, V domains shown, captured on AHC sensors) VH: EVQLVQSGAEVKKPGATVKISCKVSGYSITDYLLHWVQQAPGKGLEWMGWIDPEEGKTKYGQKFQSRVTITADTSTDTAYMELSSLRSEDTAVYYCAANSGTGTMDAWGQGTLVTVSS VL: DIVMTQSPATLSVSPGERATLSCKASQNVGSNVDWYQQKPGQSPRVLIYKASIRYTGIPARFSGSGSGTEFTLTISILQSEDFAVYFCMQSKSYPITFGQGTKLEIK has koff of 0.000371

The recorded koff for entry Antibody 12 (antibody, V domains shown, detected with anti-human IgG and captured on AHC sensors) VH: QVQLVQSGAEVKKPGASVKVSCKASGYTFTDYIIHWVRQAPGQGLEWMGWIDPDYGNTDYADKFKKRVTMTADTSISTAFMELSRLRSDDTAVYYCARDDGSPLVMDAWGQGTLVTVSS VL: DIQMTQSPSSLSASVGDRVTITCQGSQNIDNYLAWFQQKPGKAPKLLIYSTYSLQTGVPSRFSGSRSGTDFTLTISSLQPEDFATYFCFQYNNGYMFGGGTKLELK equals 0.000102

Record Antibody 17 (antibody, V domains shown, detected with anti-human IgG and captured on AHC sensors) VH: QVQLVQSGAEVKKPGASVKVSCKASGYTFTDYIIHWVRQAPGQGLEWMGWIDPDYGNTDYADKFKKRVTMTADTSISTAFMELSRLRSDDTAVYYCARDEGSPLVMDAWGQGTLVTVSS VL: DIQMTQSPSSLSASVGDRVTITCQGSQNIDNYLAWFQQKPGKAPKLLIYSTYSLQTGVPSRFSGSRSGTDFTLTISSLQPEDFATYFCFQYNNGYMFGGGTKLELK , field koff: 0.000124
